Measured MIC of individual entries
Tested on: STREPTOCOCCUS PYOGENES PIU 2548
test details: In vitro antibacterial activity, MIC, BHI agar dilution
Assay type: cell-based
experimental parameters: S. pyogenes PIU 2548, unit assumed

compound	study system	MIC (µg/mL)
CC[C@H]1OC(=O)[C@H](C)C(=O)[C@H](C)[C@@H](O[C@@H]2O[C@H](C)C[C@H](N(C)C)[C@H]2O)[C@](C)(OC)C[C@@H](C)C2=NC[C@H](Cc3ccccc3)N3C(=O)O[C@@]1(C)[C@H]3[C@H]2C	STREPTOCOCCUS PYOGENES PIU 2548	0.39
CC[C@H]1OC(=O)[C@H](C)C(=O)[C@H](C)[C@@H](O[C@@H]2O[C@H](C)C[C@H](N(C)C)[C@H]2O)[C@](C)(OC)C[C@@H](C)C2=NC3CN(CCc4cccc([N+](=O)[O-])c4)CC3N3C(=O)O[C@@]1(C)[C@H]3[C@H]2C (stereo partly shown)	STREPTOCOCCUS PYOGENES PIU 2548	0.39
CC[C@H]1OC(=O)[C@H](C)C(=O)[C@H](C)[C@@H](O[C@@H]2O[C@H](C)C[C@H](N(C)C)[C@H]2O)[C@](C)(OC)C[C@@H](C)C2=NC3CN(CCOc4ccccc4)CC3N3C(=O)O[C@@]1(C)[C@H]3[C@H]2C (stereo partly shown)	STREPTOCOCCUS PYOGENES PIU 2548	0.78
CC[C@H]1OC(=O)[C@H](C)C(=O)[C@H](C)[C@@H](O[C@@H]2O[C@H](C)C[C@H](N(C)C)[C@H]2O)[C@](C)(OC)C[C@@H](C)C2=NC3CN(CCCc4ccccc4)CC3N3C(=O)O[C@@]1(C)[C@H]3[C@H]2C (stereo partly shown)	STREPTOCOCCUS PYOGENES PIU 2548	0.2
